Assay name: total protein half-life in vivo (active degradation + dilution); higher = more stable protein
Experimental context: wild type E. coli NCM3722; growth: P-lim chemostat; doubling time 6 h
Endpoint: total protein half-life in vivo (h)
Numbers only, in h.

| Seq string | total protein half-life in vivo, h |
| --- | --- |
| MNIVITGGTGLIGRHLIPRLLELGHQITVVTRNPQKASSVLGPRVTLWQGLADQSNLNGVDAVINLAGEPIADKRWTHEQKERLCQSRWNITQKLVDLINASDTPPSVLISGSATGYYGDLGEVVVTEEEPPHNEFTHKLCARWEEIACRAQSDKTRVCLLRTGVVLAPDGGILGKMLPPFRLGLGGPIGSGRQYLAWIHIDDMVNGILWLLDNELRGPFNMVSPYPVRNEQFAHALGHALHRPAILRVPATAIRLLMGESSVLVLGGQRALPKRLEEAGFAFRWYDLEEALADVVR | 5.93 |
| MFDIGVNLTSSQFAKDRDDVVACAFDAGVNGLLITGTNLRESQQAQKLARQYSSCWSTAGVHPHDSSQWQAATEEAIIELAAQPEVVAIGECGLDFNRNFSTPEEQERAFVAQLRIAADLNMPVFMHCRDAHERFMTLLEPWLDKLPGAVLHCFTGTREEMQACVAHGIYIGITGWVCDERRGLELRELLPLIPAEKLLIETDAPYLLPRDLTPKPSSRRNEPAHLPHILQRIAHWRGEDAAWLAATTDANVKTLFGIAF | 4.15 |

Please find the next sequence below.
Quick check: total protein half-life in vivo of `MAEIGIFVGTMYGNSLLVAEEAEAILTAQGHKATVFEDPELSDWLPYQDKYVLVVTSTTGQGDLPDSIVPLFQGIKDSLGFQPNLRYGVIALGDSSYVNFCNGGKQFDALLQEQSAQRVGEMLLIDASENPEPETESNPWVEQWGTLLS` ?
6.03

###

Assay name: total protein half-life in vivo (active degradation + dilution); higher = more stable protein
Experimental context: E. coli NCM3722 delta-hslV; growth: N-lim chemostat; doubling time 6 h
Class assignment keyed on total protein half-life in vivo, ranges low-valued: < 4 h; mid-valued: ≥ 4 h and < 6 h; high-valued: ≥ 6 h

Reference set, count: 3
| Seq string | Category |
| --- | --- |
| MTLDLPRRFPWPTLLSVCIHGAVVAGLLYTSVHQVIELPAPAQPISVTMVTPADLEPPQAVQPPPEPVVEPEPEPEPIPEPPKEAPVVIEKPKPKPKPKPKPVKKVQEQPKRDVKPVESRPASPFENTAPARLTSSTATAATSKPVTSVASGPRALSRNQPQYPARAQALRIEGQVKVKFDVTPDGRVDNVQILSAKPANMFEREVKNAMRRWRYEPGKPGSGIVVNILFKINGTTEIQ | low-valued |
| MKTSVRIGAFEIDDGELHGESPGDRTLTIPCKSDPDLCMQLDAWDAETSIPALLNGEHSVLYRTRYDQQSDAWIMRLA | low-valued |
| MNTLTFLLSTVIELYTMVLLLRIWMQWAHCDFYNPFSQFVVKVTQPIIGPLRRVIPAMGPIDSASLLVAYILSFIKAIVLFKVVTFLPIIWIAGLLILLKTIGLLIFWVLLVMAIMSWVSQGRSPIEYVLIQLADPLLRPIRRLLPAMGGIDFSPMILVLLLYVINMGVAEVLQATGNMLLPGLWMAL | mid-valued |

Just checking, what class would you give `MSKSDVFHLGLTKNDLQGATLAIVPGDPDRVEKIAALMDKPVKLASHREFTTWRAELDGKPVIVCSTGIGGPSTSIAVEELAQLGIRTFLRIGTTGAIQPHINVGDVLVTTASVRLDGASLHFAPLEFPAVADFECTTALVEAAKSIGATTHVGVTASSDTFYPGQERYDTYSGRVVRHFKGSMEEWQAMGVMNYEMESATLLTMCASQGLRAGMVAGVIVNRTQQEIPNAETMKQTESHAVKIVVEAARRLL` here?
high-valued

Just checking, what class would you give `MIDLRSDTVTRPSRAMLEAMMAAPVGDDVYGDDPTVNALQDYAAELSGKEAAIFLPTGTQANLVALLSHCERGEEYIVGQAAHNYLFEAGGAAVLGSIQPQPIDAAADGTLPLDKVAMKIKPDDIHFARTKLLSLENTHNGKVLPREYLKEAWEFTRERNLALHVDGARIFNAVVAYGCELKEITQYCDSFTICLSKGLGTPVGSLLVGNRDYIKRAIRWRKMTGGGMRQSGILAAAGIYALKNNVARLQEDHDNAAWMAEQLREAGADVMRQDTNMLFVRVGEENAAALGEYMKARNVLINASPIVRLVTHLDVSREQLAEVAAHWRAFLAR` here?
mid-valued

Just checking, what class would you give `MFKKSVLFATLLSGVMAFSTNADDKIILKHISVSSVSASPTVLEDTIADIARKYNASSWKVTSMRIDNNSTATAVLYK` here?
mid-valued

Just checking, what class would you give MSNQFGDTRIDDDLTLLSETLEEVLRSSGDPADQKYVELKARAEKALDDVKKRVSQASDSYYYRAKQAVYRADDYVHEKPWQGIGVGAAVGLVLGLLLARR [P0AEH5] here?
high-valued

###

Task for the reader: assign each of the following sequences its reported total protein half-life in vivo.
Assay name: total protein half-life in vivo (active degradation + dilution); higher = more stable protein
Experimental context: E. coli NCM3722 delta-hslV; growth: N-lim chemostat; doubling time 6 h
Answers are plain numbers, in h.

| Seq string | total protein half-life in vivo (h) |
| --- | --- |
| MQLTSFTDYGLRALIYMASLPEGRMTSISEVTDVYGVSRNHMVKIINQLSRAGYVTAVRGKNGGIRLGKPASAIRIGDVVRELEPLSLVNCSSEFCHITPACRLKQALSKAVQSFLTELDNYTLADLVEENQPLYKLLLVE [P0AF63] | 5.44 |

Please find the next sequence below.
Quick check: total protein half-life in vivo of `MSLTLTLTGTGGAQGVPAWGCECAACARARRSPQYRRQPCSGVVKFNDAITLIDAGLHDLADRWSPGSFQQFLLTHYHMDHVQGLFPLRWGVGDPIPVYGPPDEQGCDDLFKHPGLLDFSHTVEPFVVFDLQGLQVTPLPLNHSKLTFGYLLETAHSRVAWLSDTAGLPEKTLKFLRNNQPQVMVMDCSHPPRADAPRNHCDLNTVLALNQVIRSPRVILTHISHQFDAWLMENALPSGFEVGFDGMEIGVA` ?
4.36

###

Assay name: total protein half-life in vivo (active degradation + dilution); higher = more stable protein
Experimental context: E. coli NCM3722 delta-lon; growth: N-lim chemostat; doubling time 6 h
# if value of total protein half-life in vivo reaches 4 h, tag condition met; if it stays below, tag condition not met

| Seq string | Category |
| --- | --- |
| MKTLIVSTVLAFITFSAQAAAFQVTSNEIKTGEQLTTSHVFSGFGCEGGNTSPSLTWSGVPEGTKSFAVTVYDPDAPTGSGWWHWTVVNIPATVTYLPVDAGRRDGTKLPTGAVQGRNDFGYAGFGGACPPKGDKPHHYQFKVWALKTEKIPVDSNSSGALVGYMLNANKIATAEITPVYEIK | condition met |
| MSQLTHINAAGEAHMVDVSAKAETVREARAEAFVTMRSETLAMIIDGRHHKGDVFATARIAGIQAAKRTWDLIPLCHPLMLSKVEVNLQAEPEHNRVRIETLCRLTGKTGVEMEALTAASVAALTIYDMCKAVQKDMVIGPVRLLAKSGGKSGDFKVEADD [P0A738] | condition met |
| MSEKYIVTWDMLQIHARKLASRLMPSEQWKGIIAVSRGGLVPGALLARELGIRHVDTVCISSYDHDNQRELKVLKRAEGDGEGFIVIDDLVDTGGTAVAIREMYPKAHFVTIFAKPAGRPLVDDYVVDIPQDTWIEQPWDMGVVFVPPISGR [P0A9M5] | condition met |
| MMKNILAIQSHVVYGHAGNSAAEFPMRRLGANVWPLNTVQFSNHTQYGKWTGCVMPPSHLTEIVQGIAAIDKLHTCDAVLSGYLGSAEQGEHILGIVRQVKAANPQAKYFCDPVMGHPEKGCIVAPGVAEFHVRHGLPASDIIAPNLVELEILCEHAVNNVEEAVLAARELIAQGPQIVLVKHLARAGYSRDRFEMLLVTADEAWHISRPLVDFGMRQPVGVGDVTSGLLLVKLLQGATLQEALEHVTAAVYEIMVTTKAMQEYELQVVAAQDRIAKPEHYFSATKL | condition not met |

Hello, I need to know if `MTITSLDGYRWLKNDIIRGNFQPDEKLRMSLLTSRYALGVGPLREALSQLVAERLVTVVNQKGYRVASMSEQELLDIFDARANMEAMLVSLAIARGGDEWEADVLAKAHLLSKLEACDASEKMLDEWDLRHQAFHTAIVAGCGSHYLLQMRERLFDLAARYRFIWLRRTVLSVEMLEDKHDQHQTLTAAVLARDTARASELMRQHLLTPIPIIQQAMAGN` has measured total protein half-life in vivo not below 4 h. Thanks!
condition not met

Hello, I need to know if `MERLKRMSVFAKVVEFGSFTAAARQLQMSVSSISQTVSKLEDELQVKLLNRSTRSIGLTEAGRIYYQGCRRMLHEVQDVHEQLYAFNNTPIGTLRIGCSSTMAQNVLAGLTAKMLKEYPGLSVNLVTGIPAPDLIADGLDVVIRVGALQDSSLFSRRLGAMPMVVCAAKSYLTQYGIPEKPADLSSHSWLEYSVRPDNEFELIAPEGISTRLIPQGRFVTNDPMTLVRWLTAGAGIAYVPLMWVINEINRGELEILLPRYQSDPRPVYALYTEKDKLPLKVQVVINSLTDYFVEVGKLFQEMHGRGKEK` has measured total protein half-life in vivo not below 4 h. Thanks!
condition met

Hello, I need to know if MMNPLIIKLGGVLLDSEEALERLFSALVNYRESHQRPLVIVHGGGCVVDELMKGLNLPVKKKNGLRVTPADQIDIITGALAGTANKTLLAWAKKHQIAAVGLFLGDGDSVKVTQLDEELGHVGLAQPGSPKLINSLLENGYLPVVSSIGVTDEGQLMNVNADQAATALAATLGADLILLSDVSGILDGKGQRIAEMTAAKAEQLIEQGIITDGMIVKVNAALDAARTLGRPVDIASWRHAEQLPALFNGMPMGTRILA [P0A6C8] has measured total protein half-life in vivo not below 4 h. Thanks!
condition met

Hello, I need to know if `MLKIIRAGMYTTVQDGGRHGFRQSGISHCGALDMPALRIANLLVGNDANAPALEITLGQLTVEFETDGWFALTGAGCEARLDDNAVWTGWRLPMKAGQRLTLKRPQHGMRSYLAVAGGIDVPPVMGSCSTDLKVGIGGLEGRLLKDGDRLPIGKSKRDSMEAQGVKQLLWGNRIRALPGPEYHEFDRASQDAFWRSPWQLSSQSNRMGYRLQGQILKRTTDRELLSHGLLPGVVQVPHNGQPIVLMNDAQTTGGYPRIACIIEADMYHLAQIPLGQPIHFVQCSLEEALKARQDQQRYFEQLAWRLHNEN` has measured total protein half-life in vivo not below 4 h. Thanks!
condition met

Hello, I need to know if MEKLRVGIVFGGKSAEHEVSLQSAKNIVDAIDKSRFDVVLLGIDKQGQWHVSDASNYLLNADDPAHIALRPSATSLAQVPGKHEHQLIDAQNGQPLPTVDVIFPIVHGTLGEDGSLQGMLRVANLPFVGSDVLASAACMDKDVTKRLLRDAGLNIAPFITLTRANRHNISFAEVESKLGLPLFVKPANQGSSVGVSKVTSEEQYAIAVDLAFEFDHKVIVEQGIKGREIECAVLGNDNPQASTCGEIVLTSDFYAYDTKYIDEDGAKVVVPAAIAPEINDKIRAIAVQAYQTLGCAGMARVDVFLTPENEVVINEINTLPGFTNISMYPKLWQASGLGYTDLITRLIELALERHAADNALKTTM [P0A6J8] has measured total protein half-life in vivo not below 4 h. Thanks!
condition met

Hello, I need to know if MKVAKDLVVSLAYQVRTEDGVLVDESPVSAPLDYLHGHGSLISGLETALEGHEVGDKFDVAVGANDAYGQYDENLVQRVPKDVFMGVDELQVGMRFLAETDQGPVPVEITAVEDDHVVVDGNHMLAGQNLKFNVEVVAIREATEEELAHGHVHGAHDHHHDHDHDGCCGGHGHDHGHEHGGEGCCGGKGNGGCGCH [P0A9K9] has measured total protein half-life in vivo not below 4 h. Thanks!
condition met
